Test system: LNCaP tumor xenograft-bearing CB17-SCID mice
assay details: Biodistribution in LNCaP tumor xenograft-bearing CB17-SCID mice
applied conditions: 24 h p.i.
value kind: Biodistribution Spleen (% ID/g)
Numbers only, in % ID/g.

Solved cases below.
{"compound": "CCCCCC[C@H](NC(=O)CC[C@H](NC(=O)N[C@@H](CCC(=O)N[C@H](CCCNC(=O)CCC(=O)NCCCC[C@@H](NC(=O)[C@@H](CNC(=O)c1ccc([Si](F)(C(C)(C)C)C(C)(C)C)cc1)NC(=O)CN1CCN(CC(=O)[O-])CCN(CC(=O)[O-])CCN(CC(=O)[O-])CC1)C(=O)O)C(=O)O)C(=O)O)C(=O)O)C(=O)O.[177Lu+3] [[^177Lu]Lu-6, [^177Lu]Lu-Proinhibitor II]", "Biodistribution Spleen (% ID/g)": 0.11}
{"compound": "CCCCCC[C@H](NC(=O)[C@H](CCC(=O)O)NC(=O)N[C@@H](CCC(=O)N[C@H](CCCNC(=O)CCC(=O)NCCCC[C@@H](NC(=O)[C@@H](CNC(=O)c1ccc([Si](F)(C(C)(C)C)C(C)(C)C)cc1)NC(=O)CN1CCN(CC(=O)[O-])CCN(CC(=O)[O-])CCN(CC(=O)[O-])CC1)C(=O)O)C(=O)O)C(=O)O)C(=O)O.[177Lu+3] [[^177Lu]Lu-7, [^177Lu]Lu-Proinhibitor III]", "Biodistribution Spleen (% ID/g)": 0.08}
{"compound": "CC(C)(C)[Si](F)(c1ccc(C(=O)NC[C@@H](NC(=O)CN2CCN(CC(=O)[O-])CCN(CC(=O)[O-])CCN(CC(=O)[O-])CC2)C(=O)N[C@H](CCCCNC(=O)CCC(=O)NCCC[C@@H](NC(=O)CC[C@H](NC(=O)O[C@@H](CCC(=O)O)C(=O)O)C(=O)O)C(=O)O)C(=O)O)cc1)C(C)(C)C.[177Lu+3] [[^177Lu]Lu-3, [^177Lu]Lu-Carbamate I]", "Biodistribution Spleen (% ID/g)": 0.09}
{"compound": "CC(C)(C)[Si](F)(c1ccc(C(=O)NCC(NC(=O)CN2CCN(CC(=O)[O-])CCN(CC(=O)[O-])CCN(CC(=O)[O-])CC2)C(=O)NC(CCCCNC(=O)CCC(=O)NCCCC(NC(=O)CCC(NC(=O)NC(CCc2nnn[nH]2)C(=O)O)C(=O)O)C(=O)O)C(=O)O)cc1)C(C)(C)C.[177Lu+3] (centres unmarked) [[^177Lu]Lu-11, [^177Lu]Lu-Tetrazole Derivative 11]", "Biodistribution Spleen (% ID/g)": 0.11}

What measured Biodistribution Spleen is associated with CSCC[C@H](NC(=O)CC[C@H](NC(=O)N[C@@H](CCC(=O)N[C@H](CCCNC(=O)CCC(=O)NCCCC[C@@H](NC(=O)[C@@H](CNC(=O)c1ccc([Si](F)(C(C)(C)C)C(C)(C)C)cc1)NC(=O)CN1CCN(CC(=O)[O-])CCN(CC(=O)[O-])CCN(CC(=O)[O-])CC1)C(=O)O)C(=O)O)C(=O)O)C(=O)O)C(=O)O.[177Lu+3] [[^177Lu]Lu-5, [^177Lu]Lu-Proinhibitor I] on LNCaP tumor xenograft-bearing CB17-SCID mice?
0.05

The values you see were collected from patent US20250375544A1.
